Test system: HOP-92 NSCLC
Assay: NCI-60 one-dose screen, 48 h
Conditions: 10 µM unless noted
Compounds without any hit were thinned out: in the full panel of roughly 83,000, 20% have a hit. The source made the active and inactive calls. Rule for the calls: active = growth percent below 10; inactive = the rest.
Bench note: report the call from active, inactive

COMPOUND	ASSAY_TARGET	LABEL_VALUE
CNC(=O)c1[nH]cc(-c2ccccc2)c1-c1cc(OC)c2c(c1OC)OCO2	HOP-92 NSCLC	inactive
c1ccc2c(c1)Nc1ccncc1S2	HOP-92 NSCLC	inactive
COc1cccc(/C=C2\C=C(c3ccccc3)N(Cc3ccccc3)C2=O)c1	HOP-92 NSCLC	inactive

Could you now look at the following compound, please?
Lab log entry: O=C(/C=C/c1cccc2ccccc12)c1ccc(NC(=O)c2ccccc2CN2C(=O)c3ccccc3C2=O)cc1 — outcome as called in the assay?
inactive

###

Test system: EKVX NSCLC
Test: NCI-60 one-dose screen, 48 h (100 = growth as untreated, 0 = no growth, -100 = all killed)
Conditions: 10 µM unless noted
Compounds without any hit were thinned out: in the full panel of roughly 83,000, 20% have a hit.
MEASURED_METRIC: growth (%)
Number in %, nothing else.

COMPOUND	READOUT_UNIT	OBS_VALUE
COc1ccn2c(C(C)=O)cc(C(=O)c3ccc4c(c3)Sc3ccccc3N4)c2c1	%	37.6
C=C1C(=O)O[C@H]2[C@H]1CC/C(COC(=O)CSCC(=O)OC/C1=C/CC[C@@]3(C)O[C@H]3[C@H]3OC(=O)C(=C)[C@@H]3CC1)=C\CC[C@@]1(C)O[C@@H]21	%	57.7
Fc1cc2c(cc1Cl)N(c1ncnc3ccc(-c4cnc5cnccn45)cc13)CC2	%	63.4
COc1ccc(-c2nc3sc(-c4ccccc4)cn3n2)cc1	%	62.7
COc1cc(Nc2nc(NCCN)nc3cc[nH]c(=O)c23)cc(OC)c1	%	87.5

The compound Cn1cc(-c2cc3ncnc(Nc4ccc(CC(=O)Nc5cc(C(C)(C)C)nn5C)cc4)c3s2)cn1 showed growth equal to 84.6

###

System: SW-620 colon
Test: NCI-60 one-dose screen, 48 h
Conditions: 10 µM unless noted
Experimental: Growth inhibition of the SW-620 human tumor cell line is measured as a screen for anti-cancer activity. Cells are grown in 96 well plates and exposed to the test compound for 48 hours. Compounds are tested at a single concentration, which is 10^-5 M for most compounds. The reported endpoint is percent growth (GI% or GIPRCNT), where numbers from 0 - 100% represent growth inhibition, and numbers from -100% - 0 represent cell death. For example, a value of 40 represents 60% growth inhibition. […]
The panel holds about 83,000 compounds, 20% with a hit somewhere; the sample as a whole holds those more often. Activity calls are given as the source filed them. How the source made its calls: active means growth percent below 10; inactive means the rest.
Bench note: report the call from YES for active, NO for inactive

Check out these entries, answers already filled in.
MOLECULE	LABEL_VALUE
O=c1ccn(Cc2cn(-c3c4ccccc4nc4ccccc34)nn2)c(=O)[nH]1	NO
CS(=O)(=O)Nc1cc(-c2ccc3ncnc(Nc4cccc(Cl)c4F)c3c2)cnc1Cl	NO
O=C1CCC(C(=O)NCCNCCNC(=O)C2CCC(=O)N2)N1 (stereo not given)	NO
CN1CCN(Cc2ccc(NC(=O)c3ccc(C(C)(C)C)c(C#Cc4cnc5cccnn45)c3)cc2C(F)(F)F)CC1	YES
Cc1ccc(C2CC(c3ccc(Nc4ccnc5cc(Cl)ccc45)cc3)=NN2C=O)cc1 (stereo not given)	NO

Lab log entry: COc1ccc(-c2conc2-c2ccccc2)cc1 — outcome as called in the assay?
NO

Lab log entry: COC(=O)c1ccc2[nH]c(O)c(C(=Nc3ccc(N(C)C(=O)CN4CCN(C)CC4)cc3)c3ccccc3)c2c1 — outcome as called in the assay?
YES

Lab log entry: CCCCn1c(-c2ccc(C(=O)O/N=C(\N)c3ccc(OC)cc3)cc2)nc(-c2ccccc2)c1-c1ccccc1 — outcome as called in the assay?
YES

###

System: SK-MEL-2 melanoma
Experiment: NCI-60 one-dose screen, 48 h (100 = growth as untreated, 0 = no growth, -100 = all killed)
Details: 10 µM unless noted
Experimental: Growth inhibition of the SK-MEL-2 human tumor cell line is measured as a screen for anti-cancer activity. Cells are grown in 96 well plates and exposed to the test compound for 48 hours. Compounds are tested at a single concentration, which is 10^-5 M for most compounds. The reported endpoint is percent growth (GI% or GIPRCNT), where numbers from 0 - 100% represent growth inhibition, and numbers from -100% - 0 represent cell death. For example, a value of 40 represents 60% growth inhibition. […]
Compounds without any hit were thinned out: in the full panel of roughly 83,000, 20% have a hit.
Classes by growth: bucket 1: < 30%; bucket 2: ≥ 30% and < 80%; bucket 3: ≥ 80%

Check out these entries, answers already filled in.
COMPOUND	LABEL_VALUE
COc1cccc(-c2nc(-c3ccc(NC(=O)OC(C)C)cc3)[nH]c2-c2ccnc(Br)c2)c1	bucket 1
O=C(Nn1c(NCC(=O)N2c3ccccc3Sc3ccccc32)nnc1-c1ccc(O)cc1)c1ccccc1	bucket 3
N#CC1=C(N)Oc2c(sc3c(Br)cccc23)C1c1ccc([N+](=O)[O-])cc1 (stereo not given)	bucket 2
Cn1cc(-c2cc3ncnc(Nc4ccc(CC(=O)Nc5cc(C(C)(C)C)nn5C)cc4)c3s2)cn1	bucket 1
Cc1ccc(-c2nn(C)c(=O)c3noc(-c4ccc(C)cc4)c23)cc1	bucket 1

Which class is correct for the following compound? O=C(Cc1ccc2c(c1)OCCO2)Nc1nc2ccc(F)cc2s1
bucket 2

Which class is correct for the following compound? Cc1ccc2c(-c3cc(-c4ccccc4)nc(N)c3C#N)cc(=O)oc2c1
bucket 3

Which class is correct for the following compound? Cn1cc(C(=O)c2nc(-c3cn(C)c4ccc(F)cc34)no2)c2cc(F)ccc21
bucket 3

Which class is correct for the following compound? N#Cc1ccc(NC(=O)c2sc3nc4c(cc3c2N)C(=O)CCC4)cc1
bucket 3

Which class is correct for the following compound? O=C(Nc1ccc(I)cc1F)c1cc(I)ccc1O
bucket 1

###

Tested on: HOP-62 NSCLC
Test: NCI-60 one-dose screen, 48 h (100 = growth as untreated, 0 = no growth, -100 = all killed)
Settings: 10 µM unless noted
Experimental: Growth inhibition of the HOP-62 human Non-Small Cell Lung tumor cell line is measured as a screen for anti-cancer activity. Cells are grown in 96 well plates and exposed to the test compound for 48 hours. Compounds are tested at a single concentration, which is 10^-5 M for most compounds. The reported endpoint is percent growth (GI% or GIPRCNT), where numbers from 0 - 100% represent growth inhibition, and numbers from -100% - 0 represent cell death. […]
Compounds without any hit were thinned out: in the full panel of roughly 83,000, 20% have a hit.
MEASURED_METRIC: growth (%)
Number in %, nothing else.

Take a look at these entries with their results.
COMPOUND	OBS_VALUE
Cc1ccc(S(=O)(=O)Oc2ccc(NC(=O)c3ccc(Cl)cc3)cc2)cc1	91.1
CCCCNC(=O)Oc1ccc(/C(=C(\C)c2ccc(Cl)cc2)c2ccc(OCCN(CC)CC)cc2)cc1	74.3
O=C(Nc1ccc(F)cc1F)c1cc(F)ccc1O	16.4
CCOC(=O)Nc1ccc(-c2nc(-c3cccc(OCCN4CCOCC4)c3)c(-c3ccnc(Br)c3)[nH]2)cc1	50.8
COc1cc(C)c(Cc2cnc(N)nc2N)cc1OC	97.1
CN(C)c1ccc2nc3ccc(=[N+](C)C)c([N+](=O)[O-])c-3sc2c1	64.2
CN1CCN(c2ccc(-c3cc4c(Nc5ccc(F)c(Cl)c5)ncnn4c3)cn2)CC1	106
O=C(CSc1nccc(Nc2ccc(S(=O)(=O)Nc3nccs3)cc2)n1)c1ccc(C(F)(F)F)cc1	113

The compound CC(=O)OC[C@H]1OC(Sc2sc(C(=O)c3ccc(Br)cc3)c(N)c2-c2nc3ccccc3s2)[C@H](OC(C)=O)[C@@H](OC(C)=O)[C@H]1OC(C)=O (some centres undefined) showed growth equal to 91.1

###

Tested on: NCI-H322M lung
Experiment: NCI-60 one-dose screen, 48 h
Conditions: 10 µM unless noted
Protocol: Growth inhibition of the NCI-H322M human Non-Small Cell Lung tumor cell line is measured as a screen for anti-cancer activity. Cells are grown in 96 well plates and exposed to the test compound for 48 hours. Compounds are tested at a single concentration, which is 10^-5 M for most compounds. The reported endpoint is percent growth (GI% or GIPRCNT), where numbers from 0 - 100% represent growth inhibition, and numbers from -100% - 0 represent cell death. […]
Compounds without any hit were thinned out: in the full panel of roughly 83,000, 20% have a hit. Calls of active or inactive are those of the source. How the source made its calls: active means growth percent below 10; inactive means the rest.
Bench note: report the call from active, inactive

Check out these entries, answers already filled in.
COMPOUND	LABEL_VALUE
CCOC(=O)c1sc2ncc(-c3ccc(OC)cc3)n2c1C	inactive
COc1ccc(CN2c3ccccc3Sc3ccccc32)c(F)c1	inactive
O=C(Nc1ccc(Cl)cc1F)c1ccccc1O	inactive
Cc1ccc(-c2nc(N3CCN(CC(=O)Nc4ccc(Cl)cc4)CC3)c3ccccc3n2)cc1	inactive
CNCCCNc1nc2ccccc2c2c(=O)c3cc(F)ccc3sc12	inactive
C=C(C)C1CCC2(C)OC2C1 (centres undefined)	inactive
CCC(=O)Nc1ccc(-c2nc(-c3cccc(OC)c3)c(-c3ccnc(Br)c3)[nH]2)cc1	inactive
CN1CCN(CC(=O)N2c3cccc4cccc(c34)N(C(=O)CN3CCN(C)CC3)C2c2cn(-c3ccccc3)nc2-c2cccc([N+](=O)[O-])c2)CC1	inactive

Lab log entry: CCN(CC)CCCNc1nc2ccccc2c2c(=O)c3cc(Cl)ccc3sc12 — outcome as called in the assay?
inactive

Lab log entry: O=c1ccn(Cc2cn(-c3c4ccccc4nc4ccccc34)nn2)c(=O)[nH]1 — outcome as called in the assay?
inactive

Lab log entry: COc1ccc(-c2nc3sc(-c4ccccc4)cn3n2)cc1 — outcome as called in the assay?
inactive

Lab log entry: CCOC(=O)c1cn2ncnc(Oc3ccc(NC(=O)NCCN(C)C)c(Cl)c3)c2c1C — outcome as called in the assay?
inactive

Lab log entry: COc1ccc(OC)c(/C=C/c2nnc(Nc3ccccc3)o2)c1 — outcome as called in the assay?
inactive

Lab log entry: CN(C)CCS(=O)(=O)Nc1cc(-c2ccc3ncc(C#N)c(Nc4ccc(F)c(Cl)c4)c3c2)cnc1Cl — outcome as called in the assay?
active

Lab log entry: C#Cc1cccc(NC(=O)Nc2ccccc2NC(=O)CCl)c1 — outcome as called in the assay?
inactive

Lab log entry: Cc1c(C(=O)NCCCc2ccccc2)sc2ncc(-c3ccc(Br)cc3)n12 — outcome as called in the assay?
inactive
